Where these numbers come from: paper PMC7269513

Molecular target: VIM-1 (Pseudomonas aeruginosa)
Assay: Ki of competitive MBL inhibition (method of Waley)
Settings: competitive, fast-on–fast-off
observed property: pKi
Here pKi is given on a logarithmic scale as minus log10 of the concentration in mol/L.

// pKi lookup, key: O=C(O)c1c(F)ccc2c1OB(O)[C@@H]1C[C@H]21
8.12

----------
Molecular target: KPC-3 (Klebsiella pneumoniae, UniProt Q9F663, H272Y)
Assay: koff of enzyme activity recovery, jump dilution method
Settings: derived from the ratio of koff and k2/K
observed property: pKd
# pKd is unitless: minus log10 of the molar concentration; print number only

GET /values?readout=pKd&system=KPC-3 (Klebsiella pneumoniae, UniProt Q9F663, H272Y)&item= O=C(O)c1c(F)ccc2c1OB(O)[C@@H]1C[C@H]21 [QPX7728]
9.51

----------
Biological target: OXA-24 (Acinetobacter baumannii, UniProt Q8RLA6)
Experiment: koff of enzyme activity recovery, jump dilution method
Format: biochemical
Conditions: derived from the ratio of koff and k2/K
observed property: Kd (pM)
Number only, in pM; omit the unit.

Given O=C(O)c1c(F)ccc2c1OB(O)[C@@H]1C[C@H]21 [QPX7728] , state its recorded Kd.
580

----------
Target: OXA-58 (Acinetobacter baumannii, UniProt Q2TR58)
observed property: Kd (nM)
Enter your answer as a number in nM; do not include the unit.

Hello, I am looking for reported Kd with OXA-58 (Acinetobacter baumannii, UniProt Q2TR58) for O=C(O)c1c(F)ccc2c1OB(O)[C@@H]1C[C@H]21 . Could you help?
3.2

----------
Biological target: UniProt P52699
Sequence (P52699 19-246 limits assumed): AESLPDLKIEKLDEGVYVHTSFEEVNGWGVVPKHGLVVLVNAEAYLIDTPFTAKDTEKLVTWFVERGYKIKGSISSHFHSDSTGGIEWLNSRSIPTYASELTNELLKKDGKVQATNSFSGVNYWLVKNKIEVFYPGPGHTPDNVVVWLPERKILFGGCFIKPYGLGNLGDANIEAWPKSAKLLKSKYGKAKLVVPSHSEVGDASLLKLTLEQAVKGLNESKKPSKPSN
Experiment: IC50 of beta-lactamase inhibition (imipenem hydrolysis)
observed property: IC50

Solved cases (3 shown):
O=C(O)C[C@@H]1CC[C@H](NC(=O)Cc2cccs2)B(O)O1 [Vaborbactam, vaborbactam] | > 160 µM
O=C(NC1CCNCC1)[C@@H]1CC[C@@H]2CN1C(=O)N2OS(=O)(=O)O [Relebactam, relebactam] | > 160 µM
NC(=O)[C@@H]1CC[C@@H]2CN1C(=O)N2OS(=O)(=O)O [Avibactam, avibactam] | > 160 µM

Shift focus to the following entry.
GET /values?readout=IC50&item= O=C(O)c1c(F)ccc2c1OB(O)[C@@H]1C[C@H]21 [QPX7728]
0.61 µM

----------
Molecular target: P99 (Enterobacter cloacae, UniProt P05364)
Assay: IC50 of beta-lactamase inhibition (nitrocefin hydrolysis)
Type: biochemical
Settings: IC50 (nM) of drug
observed property: IC50

# IC50 lookup, item NC(=O)[C@@H]1CC[C@@H]2CN1C(=O)N2OS(=O)(=O)O [Avibactam, avibactam]
26 nM

----------
Molecular target: KPC-2 (Klebsiella pneumoniae)
Sequence (Q9F663 25-293 limits assumed): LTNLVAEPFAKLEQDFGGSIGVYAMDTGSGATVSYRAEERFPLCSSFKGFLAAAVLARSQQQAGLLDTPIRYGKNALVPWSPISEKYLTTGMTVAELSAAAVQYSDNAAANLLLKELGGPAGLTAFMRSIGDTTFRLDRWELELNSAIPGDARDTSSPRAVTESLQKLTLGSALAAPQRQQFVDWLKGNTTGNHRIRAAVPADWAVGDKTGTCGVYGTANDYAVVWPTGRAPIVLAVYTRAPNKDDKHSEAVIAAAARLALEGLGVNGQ
observed property: Kd (nM)
Supply the numeric figure in nM, leaving out any unit text.

Requested read-out: Kd. Entry: O=C(O)c1c(F)ccc2c1OB(O)[C@@H]1C[C@H]21
0.25

----------
Molecular target: OXA-48 (Klebsiella pneumoniae, UniProt Q6XEC0)
Sequence (Q6XEC0 23-265 limits assumed): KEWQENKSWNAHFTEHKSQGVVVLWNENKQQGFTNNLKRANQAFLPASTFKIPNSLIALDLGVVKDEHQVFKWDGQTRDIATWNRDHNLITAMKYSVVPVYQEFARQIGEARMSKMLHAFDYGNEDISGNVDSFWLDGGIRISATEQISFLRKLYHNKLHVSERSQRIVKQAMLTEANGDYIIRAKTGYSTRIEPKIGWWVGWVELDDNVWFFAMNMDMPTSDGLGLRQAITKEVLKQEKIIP
Assay: IC50 of beta-lactamase inhibition (nitrocefin hydrolysis)
Type: biochemical, Enterobacteriaceae
Conditions: read-out: IC50 (nM) of drug
observed property: IC50 (nM)
Please respond with the number in nM and leave the unit unwritten.

Please give the measured IC50 for this compound: O=C(O)C[C@@H]1CC[C@H](NC(=O)Cc2cccs2)B(O)O1
6900

----------
Target: CTX-M-14 (Escherichia coli)
Sequence (Q9L5C7 entry or part of it): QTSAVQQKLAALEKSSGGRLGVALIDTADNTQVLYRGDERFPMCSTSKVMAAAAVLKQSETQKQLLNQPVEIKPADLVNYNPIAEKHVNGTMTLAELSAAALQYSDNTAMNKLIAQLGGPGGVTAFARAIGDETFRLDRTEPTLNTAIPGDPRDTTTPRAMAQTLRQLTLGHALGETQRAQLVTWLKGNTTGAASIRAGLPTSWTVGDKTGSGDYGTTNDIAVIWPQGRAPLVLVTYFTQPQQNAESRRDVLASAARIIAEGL
Experiment: IC50 of beta-lactamase inhibition (nitrocefin hydrolysis)
Type: biochemical
Details: read-out: IC50 (nM) of drug
Recorded IC50 values for a group of compounds are listed next.

Use the examples below as a reference point.
NC(=O)[C@@H]1CC[C@@H]2CN1C(=O)N2OS(=O)(=O)O | 1.4 nM
O=C(NC1CCNCC1)[C@@H]1CC[C@@H]2CN1C(=O)N2OS(=O)(=O)O | 34 nM
O=C(O)C[C@@H]1CC[C@H](NC(=O)Cc2cccs2)B(O)O1 | 110 nM

Then there is this compound:
Entry O=C(O)c1c(F)ccc2c1OB(O)[C@@H]1C[C@H]21 , system CTX-M-14 (Escherichia coli): what IC50 was measured?
0.94 nM
